# Lookup of reported scaled lipid accumulation score keyed by entry
test system: primary human hepatic stellate cells (donor 1); test: scaled lipid accumulation score (0 = DMSO-like, 1 = nortriptyline-like); higher = stronger HSC inactivation (lipid re-accumulation), active = hit call of the paper; conditions: library stock concentration: 10 mM; 48 h
Structures can show the parent of a compound that is named as a salt. About 620 (11%) of roughly 5,800 compounds showed activity. Only a selection was taken, and actives are over-represented in it overall.

Here is how some molecules turned out for scaled lipid accumulation score.
molecule	observed_measurement
COc1ccc(-c2oc3c(CC=C(C)C)c(O[C@@H]4O[C@H](CO)[C@@H](O)[C@H](O)[C@H]4O)cc(O)c3c(=O)c2O[C@@H]2O[C@@H](C)[C@H](O)[C@@H](O)[C@H]2O)cc1	≤ 0 (inactive)
CCN(CC)CCOC(=O)C(c1ccccc1)C1CCCCC1 (stereo unspecified) [Drofenine hydrochloride]	0.335 (inactive)
CC(C)C(=O)Oc1ccc(CO)cc1[C@H](CCN(C(C)C)C(C)C)c1ccccc1.O=C(O)C=CC(=O)O [Fesoterodine Fumarate]	1.13 (active)
CNC(C)C(=O)NC(C(=O)N1CCCC1C(=O)NC(C(=O)NCCCCCCNC(=O)C(NC(=O)C1CCCN1C(=O)C(NC(=O)C(C)NC)C1CCCCC1)C(c1ccccc1)c1ccccc1)C(c1ccccc1)c1ccccc1)C1CCCCC1 (stereo unspecified)	0.061 (inactive)
CC(C)N(CC[C@H](c1ccccc1)c1cc(CO)ccc1O)C(C)C	≤ 0 (inactive)

Any idea what scaled lipid accumulation score was measured for CC(=O)O[C@]1(C(C)=O)CC[C@H]2[C@@H]3C=C(C)C4=CC(=O)CC[C@]4(C)[C@H]3CC[C@@]21C [Megestrol Acetate] ? ≤ 0 (inactive)

----------
# Lookup of reported scaled lipid accumulation score keyed by entry
tested on: primary human hepatic stellate cells (donor 1); test: scaled lipid accumulation score (0 = DMSO-like, 1 = nortriptyline-like); higher = stronger HSC inactivation (lipid re-accumulation), active = hit call of the paper; settings: library stock concentration: 3.33 mM; 48 h
Structures can show the parent of a compound that is named as a salt. Hit rate of the full screen: of about 5,800 compounds, about 620 (11%) showed activity. What follows is part of a selection rich in actives, with near analogues and random picks from the rest.

molecule	observed_measurement
O=C(Nc1ccccc1)c1cc([N+](=O)[O-])ccc1Cl	0.023 (inactive)
Cc1oncc1C(=O)Nc1ccc(C(F)(F)F)cc1 [Leflunomide]	≤ 0 (inactive)
CN(C)C(=O)c1ccc(S(=O)(=O)c2ccc(NC(=O)C(C)(O)C(F)(F)F)c(Cl)c2)cc1 (stereo not given)	≤ -0.009 (inactive)
Oc1cc(O)c(Cl)cn1	0.014 (inactive)
CNS(=O)(=O)CCc1ccc2[nH]cc(C3CCN(C)CC3)c2c1	≤ 0 (inactive)
O=C(Nc1cc(C(F)(F)F)cc(C(F)(F)F)c1)c1cc(Cl)ccc1O [IKK-2 Inhibitor V]	≤ 0 (inactive)
CN1CCC[C@@H]1CCO[C@](C)(c1ccccc1)c1ccc(Cl)cc1 [Clemastine Fumarate]	0.249 (inactive)
O=C(Nc1cc(C(F)(F)F)cc(C(F)(F)F)c1)c1cc(Cl)ccc1O	0.722 (inactive)
CN(C)C(=O)C(CCN1CCC(O)(c2ccc(Cl)cc2)CC1)(c1ccccc1)c1ccccc1 [Loperamide HCl]	0.485 (inactive)

# context switch: different molecule, same scaled lipid accumulation score
API: value(readout= scaled lipid accumulation score, system= primary human hepatic stellate cells (donor 1), query= CN1CCN(C(c2ccccc2)c2ccccc2)CC1 [Cyclizine 2HCl] ) ≤ 0 (inactive)
